// values below are reported pIC50
Biological target: SHP2 (Homo sapiens (Human))
Sequence (Q06124 whole entry): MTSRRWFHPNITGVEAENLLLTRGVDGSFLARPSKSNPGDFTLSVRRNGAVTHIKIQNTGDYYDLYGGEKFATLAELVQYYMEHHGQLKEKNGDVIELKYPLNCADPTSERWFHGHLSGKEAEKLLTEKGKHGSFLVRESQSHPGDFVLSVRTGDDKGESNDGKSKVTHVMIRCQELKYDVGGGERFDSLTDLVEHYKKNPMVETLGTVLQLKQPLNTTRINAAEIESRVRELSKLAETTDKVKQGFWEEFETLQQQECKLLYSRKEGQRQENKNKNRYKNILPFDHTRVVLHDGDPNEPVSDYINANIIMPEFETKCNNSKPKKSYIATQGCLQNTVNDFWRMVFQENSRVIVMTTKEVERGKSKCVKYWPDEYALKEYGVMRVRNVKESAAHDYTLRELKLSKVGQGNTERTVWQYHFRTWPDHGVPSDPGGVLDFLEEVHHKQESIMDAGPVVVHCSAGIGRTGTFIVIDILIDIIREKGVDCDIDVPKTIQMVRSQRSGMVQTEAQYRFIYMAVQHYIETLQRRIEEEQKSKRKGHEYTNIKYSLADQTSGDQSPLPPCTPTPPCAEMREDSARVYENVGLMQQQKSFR
Experiment: SHP2 allosteric inhibition assay (DiFMUP prompt fluorescence)
Conditions: 0.5 nM SHP2 activated with 0.5 μM peptide IRS1_pY1172(dPEG8)pY1222; substrate DiFMUP; 25° C.
In textbook form, pIC50 equals minus log to base ten of the concentration in mol/L.

The examples below pair each entry with its known result.
molecule	pIC50
C[C@H]1C[C@@H](N)C2(CCN(c3nc(N)c(-c4ccc(F)c(F)c4)c(=O)n3C)CC2)C1 [Example 127]	7.85
COc1nccc(Sc2cnc(N3CCC4(CC3)CO[C@@H](C)[C@H]4N)n(C)c2=O)c1Cl [Example 105]	8.10
Cn1c(N2CCC(C)(CN)CC2)nc(N)c(Sc2ccnc(N)c2Cl)c1=O [Example 4]	7.28
Cn1c(N2CCC(C)(CN)CC2)nc(N)c(Sc2ccccc2[N+](=O)[O-])c1=O [Example 48]	6.52
C[C@@H]1CC2(CCN(c3nc(N)c(-c4ccccc4)c(=O)n3C)CC2)[C@H](N)[C@H]1F [Example 188]	7.82
C[C@@H]1OCC2(CCN(c3ccc(Sc4cccc(Cl)c4Cl)c(=O)[nH]3)CC2)[C@@H]1N [Example 120]	7.82
N[C@@H]1CCCC12CCN(c1ncc(Sc3cccnc3C(F)(F)F)c(=O)[nH]1)CC2 [Example 92]	7.04
CC[C@@H]1OCC2(CCN(c3nc(N)c(Sc4cccnc4C(F)(F)F)c(=O)n3C)CC2)[C@@H]1N [Example 87]	7.68
C[C@@H]1OCC2(CCN(c3nc(N)c(Sc4ccccc4Cl)c(=O)n3C)CC2)[C@@H]1N [Example 27]	7.60
C[C@@H]1OCC2(CCN(c3nc(N)c(-c4ccc(F)c(F)c4)c(=O)n3C)CC2)[C@@H]1N [Example 133]	7.77

Ask: Report pIC50 for Cn1c(N2CCC3(CCC[C@H]3N)CC2)ncc(Sc2cccc(Cl)c2Cl)c1=O [Example 109] please.
Reply: 7.59

Ask: How about this molecule: Cn1c(N2CCC(C)(CN)CC2)nc(N)c(Sc2ccc(Cl)cc2Cl)c1=O [Example 56]
Reply: 6.77

Ask: Another: Cn1c(N2CCC3(CC2)CC(F)(F)C[C@H]3N)nc(N)c(Sc2ccnc(N)c2Cl)c1=O [Example 42]
Reply: 7.85

Ask: Field entry: COc1ccccc1-c1c(N)nc(N2CCC3(CC2)CO[C@@H](C)[C@H]3N)n(C)c1=O [Example 181]
Reply: 6.08

Ask: Please do the same for C[C@@H]1CC2(CCN(c3nc(N)c(Sc4ccnc(N)c4Cl)c(=O)n3C)CC2)[C@H](N)C1(F)F [Example 34] as well.
Reply: 7.24

Ask: And what about the molecule C[C@@H]1OCC2(CCN(c3nc(N)c(Sc4ccc(F)cc4Cl)c(=O)n3C)CC2)[C@@H]1N [Example 81] ?
Reply: 7.82

FYI, the data here is from patent US10308660B2.
